SYSTEM: T1, mouse κ-opioid receptor (KOR) tagged with EGFP (mouse, UniProt P33534 1-380)
T1 construct: κ-opioid receptor, mouse; cloned into the pEGFP-N1 vector with BamHI and HindIII; read as EGFP at the receptor's C-terminus; also called mouse KOR; KOR-EGFP; source: HEK293, stably expressing (membrane preparations; whole cells for cAMP); HEK293, transiently transfected (BRET); not shown: EGFP, C-terminal, kept
MEASUREMENT PROTOCOL: radioligand binding; concentration-dependent competition against 1 nM [3H]-diprenorphine on membranes (7 μg/assay) of HEK293 cells stably expressing the mouse KOR; 50 mM Tris–HCl pH 7.4, 10 mM MgCl2, 0.1% BSA; 1 h at 37 °C; Ki from IC50 by Cheng and Prusoff
RUN CONDITIONS: one partner purified
Bridge positions count the residues as written; N and C are the ends.
PROPERTY: log10 Ki (log10 of the value in nM)
A difference of one corresponds to tenfold Ki; all values are log10 with Ki in nM.

BINDER | VAL
cyclo(CTYGGFLRCRIRPKLK) (disulfide 1-9 (inferred), dyn A 1–13 divided into two fragments (YGGFLR and RIRPKLK) placed in the two loops of the SFTI-1 scaffold; source: synthetic peptide (Fmoc chemistry, backbone cyclised, oxidised, RP-HPLC purified)) [helianorphin-18] | 2.81

Problem: For the binder cyclo(CTKSIPPICYGGFLRRI) (disulfide 1-9 (inferred), source: synthetic peptide (Fmoc chemistry, backbone cyclised, oxidised, RP-HPLC purified)) [helianorphin-4] , give its measured log10 Ki value.
Result: 3.40

Problem: Quickly give me recorded log10 Ki for cyclo(CTKSIPPICYGGFLRRIRPKLK) (disulfide 1-9 (inferred), source: synthetic peptide (Fmoc chemistry, backbone cyclised, oxidised, RP-HPLC purified)) [helianorphin-2]
Result: 1.99

Problem: Provide log10 Ki value for the following binder: cyclo(CYGGFLRRCIRPKLK) (disulfide 1-9 (inferred), dyn A 1–13 divided into two fragments (YGGFLRR and IRPKLK) placed in the two loops of the SFTI-1 scaffold; source: synthetic peptide (Fmoc chemistry, backbone cyclised, oxidised, RP-HPLC purified)) [helianorphin-19]
Result: 1.32

Problem: Hello, please tell me recorded log10 Ki for this one: cyclo(CYGGFLRRICFPDGR) (disulfide 1-10 (inferred), source: synthetic peptide (Fmoc chemistry, backbone cyclised, oxidised, RP-HPLC purified)) [helianorphin-3]
Result: 3.51
